- assayedTarget: CIB1 and αIIb interaction (CIB1-GST : F-αIIb peptide) (Homo sapiens)
- Construct: made in house; host or cells: BL-21 plus RIL cells (E. coli)
- Sequence (Q99828 1-191): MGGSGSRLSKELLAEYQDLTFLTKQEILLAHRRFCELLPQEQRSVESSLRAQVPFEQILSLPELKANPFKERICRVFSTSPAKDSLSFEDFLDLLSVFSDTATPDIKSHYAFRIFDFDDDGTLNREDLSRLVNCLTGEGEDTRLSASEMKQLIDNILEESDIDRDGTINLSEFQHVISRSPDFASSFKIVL
- experimentNotes: FP assay, 1536-well qHTS format (primary and confirmatory screen)
- Assay type: binding
- studyConditions: qHTS primary screen of LOPAC/NPACT libraries; negative = inhibition
Assign class by Efficacy (%): not lower than -30% means Criterion met; lower than -30% means Criterion not met.

INSERT INTO results (compound, qualitativelabel) VALUES
  ('Cc1cccc(C)c1-n1c(=O)c2cnc(Nc3ccc(N4CCN(C)CC4)cc3)nc2n2c3ccccc3nc12 [NCGC00378811-02]', 'Criterion met'),
  ('Cn1cc(-c2cnc3ccc4ccc(CS(=O)(=O)NCc5ccccn5)cc4c(=O)c3c2)cn1 [NCGC00378567-02]', 'Criterion met'),
  ('COc1ccc2c(c1)C(=O)N(CCc1ccc(S(=O)(=O)NC(=O)NC3CCCCC3)cc1)C(=O)C2(C)C [NCGC00016819-06]', 'Criterion not met'),
  ('C=CCn1c(=O)c2c(nc(-c3ccc(S(=O)(=O)O)cc3)n2C)n(C)c1=O [NCGC00015008-05]', 'Criterion met'),
  ('CC(C)c1ccc2c(c1)c(SC(C)(C)C)c(CC(C)(C)C(=O)O)n2Cc1ccc(Cl)cc1 [NCGC00162249-03]', 'Criterion met'),
  ('O=C(Nc1cccc(C(=O)Nc2ccc(S(=O)(=O)O)c3cc(S(=O)(=O)O)cc(S(=O)(=O)O)c23)c1)Nc1cccc(C(=O)Nc2ccc(S(=O)(=O)O)c3cc(S(=O)(=O)O)cc(S(=O)(=O)O)c23)c1 [NCGC00025069-04]', 'Criterion not met');

* * *

- assayedTarget: CIB1 and αIIb interaction (CIB1-GST : F-αIIb peptide) (Homo sapiens, UniProt Q99828)
- Construct: made in house; host or cells: BL-21 plus RIL cells (E. coli)
- experimentNotes: FP assay, 1536-well qHTS format (primary and confirmatory screen)
- Assay type: binding
resultType: Efficacy (%)

INSERT INTO assay_data (compound, valueunit, value) VALUES
  ('Oc1cccc2cccnc12', '%', -29),
  ('O=[N+]([O-])c1ccc2c(c1)S(=O)(=O)C=C2', '%', -37),
  ('c1ccc(C2Nc3cccc4cccc(c34)N2)cc1', '%', -29),
  ('NC(Cc1cc(O)c(O)cc1O)C(=O)O (stereo not shown)', '%', -97);

* * *

Reported pIC50 values for a set of compounds
- assayedTarget: CIB1 and αIIb interaction (CIB1-GST : F-αIIb peptide) (Homo sapiens, UniProt Q99828)
- Construct: made in house; host or cells: BL-21 plus RIL cells (E. coli)
- experimentNotes: FP assay, 1536-well qHTS format (primary and confirmatory screen)
- Assay type: binding
- studyConditions: qHTS primary screen hits, Table S2; read-out: IC50
pIC50: −log10 of the molar value.
resultType: pIC50

INSERT INTO assay_data (compound, resulttype, value) VALUES
  ('O=C(O)C(F)(F)F.O=c1[nH]c2ccccc2n1C1CCN(CCCC(c2ccc(F)cc2)c2ccc(F)cc2)CC1 [NCGC00015802-18]', 'pIC50', 4.05),
  ('CN(C)CCN1C(=O)c2cccc3cc(N)cc(c23)C1=O [NCGC00346513-01]', 'pIC50', 5.96),
  ('O=C1CCC(N2C(=O)c3ccccc3C2=O)C(=O)N1 (stereo not shown) [NCGC00015989-17]', 'pIC50', 4.30),
  ('COc1ccc(CC(=O)Nc2ccc(S(=O)(=O)Nc3cc(C)on3)cc2)cc1C.O=C(O)C(F)(F)F [NCGC00244861-01]', 'pIC50', 4.95),
  ('O=C1NC(=O)/C(=C/c2ccc3c(c2)OC(F)(F)O3)S1 [NCGC00261190-01]', 'pIC50', 4.75),
  ('O=C(O)C(F)(F)F.OCc1ccc(-c2ccc3ncnc(NCCc4c[nH]cn4)c3c2)o1 [NCGC00188669-01]', 'pIC50', 4.35),
  ('Cc1ccc(S(=O)(=O)Nc2cnccc2C(=O)Nc2ccc(-c3nnn[nH]3)cc2)cc1.O=C(O)C(F)(F)F [NCGC00343837-01]', 'pIC50', 4.50),
  ('CO[C@@]12[C@H](COC(N)=O)C3=C(C(=O)C(C)=C(N)C3=O)N1C[C@@H]1N[C@@H]12 [NCGC00163468-05]', 'pIC50', 4.60),
  ('CCc1ccc(S(=O)(=O)Nc2cnccc2C(=O)Nc2nc(-c3ccccc3)cs2)cc1.O=C(O)C(F)(F)F [NCGC00344909-01]', 'pIC50', 4.10),
  ('CC(C)=CCOc1ccc(/C=C/C(=O)c2ccc(OCC=C(C)C)cc2OCC(=O)O)cc1 [NCGC00159481-03]', 'pIC50', 4.00),
  ('NC(=O)C1CCN(c2nc(-c3ccccc3N)cs2)CC1.O=C(O)C(F)(F)F [NCGC00183555-01]', 'pIC50', 4.40),
  ('CC1=NN(c2ccccc2)C(=O)C1 [NCGC00018218-10]', 'pIC50', 4.30),
  ('O=C(O)C(F)(F)F.O=C1CC(c2ccccc2F)c2sc(N3CCOCC3)nc2N1 (stereo not shown) [NCGC00488254-02]', 'pIC50', 4.25),
  ('OCc1ccc(-c2ccc(-c3ccc(CO)s3)o2)s1 [NCGC00159570-01]', 'pIC50', 4.47),
  ('O=C(Nc1nc(-c2ccccc2)cs1)c1ccncc1NS(=O)(=O)c1ccc(F)cc1Cl.O=C(O)C(F)(F)F [NCGC00345105-01]', 'pIC50', 4.10),
  ('N#C[C@@H]1C[C@@H]2C[C@@H]2N1C(=O)[C@@H](N)C12CC3CC(CC(O)(C3)C1)C2 [NCGC00242597-01]', 'pIC50', 4.35);

* * *

- assayedTarget: GST-CIB1 : F-scrambled peptide (Homo sapiens, UniProt Q99828)
- Construct: made in house; host or cells: BL-21 plus RIL cells (E. coli)
- experimentNotes: FP scrambled-peptide counter screen, 1536-well format
- Assay type: binding
- studyConditions: Table S3, counterscreen, qHTS curve class; a negative sign marks inhibitory curves
Reported Curve Class (counterscreen) values for a set of compounds
resultType: Curve Class (counterscreen)

INSERT INTO results (compound, value) VALUES
  ('Nc1cccc2c1C(=O)N(C1CCC(=O)NC1=O)C2=O (stereo not shown)', -2.1),
  ('COc1ccc(-n2ncc3c2CCCC3NC(=O)c2ccccc2F)cc1.O=C(O)C(F)(F)F (stereo not shown)', 4),
  ('O=C1c2cccc(O)c2C(=O)c2c(O)cc(CO)cc21', 4),
  ('Cc1c2c(=O)n(-c3ccccc3)[nH]c2cc(=O)n1-c1cccnc1.O=C(O)C(F)(F)F', -2.2),
  ('Cc1ccc2c(c1)/C(=C\C(=O)c1cccs1)C(=O)N2.O=C(O)C(F)(F)F', -2.4),
  ('CC(=O)c1c(O)cc2c(c1C)C(=O)CC(O)C2 (stereo not shown)', -3),
  ('O=C(NC1=CC(=O)[C@H]2O[C@H]2C1=O)c1ccccc1O', -2.4),
  ('CN(C)CCCNC(=O)c1ccc(-c2cc(O)c3ncccc3c2)cc1', -2.4),
  ('O=C(O)C(F)(F)F.O=S(=O)(Nc1ccc(N2CCNCC2)cc1)c1ccc(NCc2ccc(Br)cc2O)cc1', -2.2),
  ('O=C(O)C(F)(F)F.O=C1CCCC2=C1C(c1ccncc1)N=C(Nc1nc3ccccc3o1)N2 (stereo not shown)', 4),
  ('O=C1c2ccccc2C(=O)c2c1ccc(O)c2O', -2.1),
  ('CC(=O)Nc1sc2c(c1-c1nc3ccccc3o1)CCN(C(C)C)C2.O=C(O)C(F)(F)F', -2.2),
  ('CCCCNC(=S)N/N=C1\C(=O)Nc2ccccc21.O=C(O)C(F)(F)F', -1.2),
  ('CN(CC(=O)Nc1ccc(N2CCOCC2)cc1)Cc1c(O)ccc2ccccc12.O=C(O)C(F)(F)F', -2.2),
  ('CC(C)c1nc(Nc2nc3ccccc3o2)nc2c1CCCC2.O=C(O)C(F)(F)F', -2.4),
  ('CN(C(=O)c1cccs1)c1cccnc1.O=C(O)C(F)(F)F', -2.1),
  ('C[C@@H]1CC[C@]2(C)C3(C)CC[C@@]2(OC3=O)[C@@]12C[C@H](c1ccoc1)OC2=O', -1.2),
  ('CN(C)CCc1c[nH]c2cccc(O)c12', -2.1),
  ('CC(C)c1ccc(NC(=S)N/N=C2\C(=O)Nc3ccccc32)cc1.O=C(O)C(F)(F)F', -1.2);
